The entries below are paired with their reported 100 nM monkey C5-mmh Bound (RU).
- Measured target: T1, monkey C5-mmh (monkey, UniProt P01031 19-1676 (human entry), limits assumed)
- T1 construct: Recombinant monkey C5 with a C-terminal myc-myc-hexahistidine tag
- T1 chain: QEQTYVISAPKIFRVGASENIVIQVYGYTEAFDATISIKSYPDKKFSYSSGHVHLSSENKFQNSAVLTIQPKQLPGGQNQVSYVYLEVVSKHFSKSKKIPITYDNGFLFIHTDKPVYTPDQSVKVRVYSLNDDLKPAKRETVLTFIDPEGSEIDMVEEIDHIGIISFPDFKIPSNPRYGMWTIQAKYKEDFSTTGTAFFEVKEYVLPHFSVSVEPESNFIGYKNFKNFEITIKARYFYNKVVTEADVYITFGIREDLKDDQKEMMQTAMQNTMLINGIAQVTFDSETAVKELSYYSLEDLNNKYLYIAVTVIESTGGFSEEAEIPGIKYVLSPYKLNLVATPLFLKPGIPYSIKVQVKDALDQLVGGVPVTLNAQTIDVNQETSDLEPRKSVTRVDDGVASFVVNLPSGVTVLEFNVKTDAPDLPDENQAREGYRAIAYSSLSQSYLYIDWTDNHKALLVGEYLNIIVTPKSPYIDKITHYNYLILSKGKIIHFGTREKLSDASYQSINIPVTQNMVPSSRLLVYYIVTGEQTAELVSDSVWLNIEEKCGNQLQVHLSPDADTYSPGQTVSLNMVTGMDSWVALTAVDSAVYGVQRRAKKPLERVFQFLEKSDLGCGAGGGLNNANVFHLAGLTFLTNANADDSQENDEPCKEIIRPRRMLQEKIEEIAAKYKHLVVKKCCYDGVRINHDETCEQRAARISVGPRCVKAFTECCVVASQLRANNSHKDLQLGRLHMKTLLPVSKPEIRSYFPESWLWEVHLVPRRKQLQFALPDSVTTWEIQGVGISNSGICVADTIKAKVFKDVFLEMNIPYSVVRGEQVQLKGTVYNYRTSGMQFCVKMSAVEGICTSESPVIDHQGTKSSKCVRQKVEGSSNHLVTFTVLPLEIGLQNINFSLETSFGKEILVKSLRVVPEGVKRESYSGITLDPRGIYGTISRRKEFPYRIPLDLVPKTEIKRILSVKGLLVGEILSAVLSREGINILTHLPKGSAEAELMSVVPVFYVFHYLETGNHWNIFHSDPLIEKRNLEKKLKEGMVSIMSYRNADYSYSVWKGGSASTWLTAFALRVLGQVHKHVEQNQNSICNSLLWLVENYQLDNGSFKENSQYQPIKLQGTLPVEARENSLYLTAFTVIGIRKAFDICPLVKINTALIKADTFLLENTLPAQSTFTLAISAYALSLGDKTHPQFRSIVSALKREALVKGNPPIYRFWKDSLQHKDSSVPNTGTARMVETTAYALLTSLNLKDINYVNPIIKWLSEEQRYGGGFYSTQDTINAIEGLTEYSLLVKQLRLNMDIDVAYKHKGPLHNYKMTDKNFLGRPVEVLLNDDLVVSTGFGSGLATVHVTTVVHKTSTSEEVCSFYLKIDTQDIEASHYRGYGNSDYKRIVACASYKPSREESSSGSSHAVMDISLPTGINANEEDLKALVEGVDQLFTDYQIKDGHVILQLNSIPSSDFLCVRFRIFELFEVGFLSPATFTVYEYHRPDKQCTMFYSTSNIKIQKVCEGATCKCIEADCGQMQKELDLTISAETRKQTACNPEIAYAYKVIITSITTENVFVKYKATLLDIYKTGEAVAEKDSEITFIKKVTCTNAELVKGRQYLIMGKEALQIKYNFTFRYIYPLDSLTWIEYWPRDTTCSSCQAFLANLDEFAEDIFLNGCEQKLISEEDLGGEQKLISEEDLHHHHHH
- Experiment: SPR, mAb captured via anti-hFc, 37C
Value expressed in RU; do not type the unit.

In: Provide measured 100 nM monkey C5-mmh Bound (RU) value, entry: H4H12171P (antibody, human IgG4, V domains shown, Human IgG4 Fc with S108P hinge mutation (H4H)) VH: EVQLVESGGGVVRPGGSLRLSCAASGFTFDEYGMTWVRQVPGKGLEWVSGITWNGGFTDYTDSVKGRFTSSRDNAKNSLYLQMNSLRAEDTALYYCARDGYSSSWGAYDIWGQGTMVTVSS VL: DIQMTQSPSSLSASVGDRVTITCRASQSISTYLNWYQQKPGKAPKLLIYAASSLQSGVPLRFSGSGSGTDFTLTISSLQPEDFASYFCQQSYSTPYTFGQGTKLEIK
Out: 78

In: Provide measured 100 nM monkey C5-mmh Bound (RU) value, entry: H4H12161P (antibody, human IgG4, V domains shown, Human IgG4 Fc with S108P hinge mutation (H4H)) VH: EVQLVESGGDLVQPGGSLRLSCAASGFTFSDHYMDWVRQAPGKGLDWIGRIRNKANAYNTEYAASVRGRFTISRDDSQNLLYLQMNSLKTDDTAVYYCVRVWNYAYFAMDVWGQGTTVTVSS VL: DIQMTQSPSSLSASVGDRVTITCRSSQNIGIFLNWYQQKPGEAPNLLISAASSLHSGVPSRFSGSGSGTDFTLTIGSLQPEDFATYYCQQTYNTIFTFGPGTKVDIK
Out: 53

In: Provide measured 100 nM monkey C5-mmh Bound (RU) value, entry: H4H12166P4 (antibody, human IgG4, V domains shown, Histidine-mutated CDR variant of H4H12166P; human IgG4 Fc with S108P) VH: QVQLQESGPGLVKPSETLSLTCTVSGDSVSSSYWTWIRQPPGKGLEWIGYIYYSGSSNYNPSLKSRATISVDTSKNQFSLKLSSVTAADTAVYYCAREGNVDTTMIFDYWGQGTLVTVSS VL: AIQMTQSPSSLSASVGDRVTITCRASQGIRNDLGWYQQKPGKAPKLLIYAASSLQSGVPSRFAGRGSGTDFTLTISSLQPEDFATYYCLQDFNYPWHFGQGTKVEIK
Out: 80

In: Provide measured 100 nM monkey C5-mmh Bound (RU) value, entry: H4H12170P (antibody, human IgG4, V domains shown, Human IgG4 Fc with S108P hinge mutation (H4H)) VH: QVQLVESGGGVVQPGRSLRLSCAASGFTFSGYGMHWVRQAPGKGLEWVALIWLDGSNDYYADSVKGRFTISRDNSKNTLYLQMNRLRAEDTAVYYCARDGPVAAIPDYWGQGTLVTVSS VL: DIQMTQSPSTLSASVGDRVTITCRASQSISRWLAWYQLKPGKAPKLLIYKASSLESGVPSRFSGSGSGTDFTLTISSLQPDDFATYYCQQYNTYSYTFGQGTKLEIK
Out: 60

In: Provide measured 100 nM monkey C5-mmh Bound (RU) value, entry: H4H12164P (antibody, human IgG4, V domains shown, Human IgG4 Fc with S108P hinge mutation (H4H)) VH: EVQLVESGGGLVRSGGSLRLSCAASGFTFNRYAMTWVRQAPGKGLEWVSAISGSGSSTYYTDSVKGRFTISRDNSKNSVDLQMHSLRVEDTAIYYCARGTTVTTGYGMDVWGQGTTVTVSS VL: DIQMTQSPSSLSASVGDRVTFTCQASQDITNSLNWYQQKPGRAPKLLIYDASYLKAGVPSRFSGSGSGTDFTFTISSLQPEDIATYYCQQYDDLPYTFGQGTKLEIK
Out: 99
